System: Escherichia coli TOP10
PROTOCOL_TEXT: shrunken log2 fold change of peptide-encoding DNA abundance (4.5 h post-induction vs induction); higher = less antimicrobial activity (less host growth inhibition)
CONDITION_SUMMARY: time post-induction: 4.5 h; library: site-saturation at positions 5, 18, 19, 20
Documented shrunken log2 fold change across a set of sequences
RECORDED_METRIC: shrunken log2 fold change

[[record]]
entry_sequence = "RRIRRRPPRLPRPRPRPAFTPRP"
measured_target = "Escherichia coli TOP10"
recorded_metric = "shrunken log2 fold change"
assay_value = 0.118

[[record]]
entry_sequence = "RRIRARPPRLPRPRPRPIRHPRP"
measured_target = "Escherichia coli TOP10"
recorded_metric = "shrunken log2 fold change"
assay_value = -0.0279

[[record]]
entry_sequence = "RRIRNRPPRLPRPRPRPPTMPRP"
measured_target = "Escherichia coli TOP10"
recorded_metric = "shrunken log2 fold change"
assay_value = -0.126

[[record]]
entry_sequence = "RRIRIRPPRLPRPRPRPLQPPRP"
measured_target = "Escherichia coli TOP10"
recorded_metric = "shrunken log2 fold change"
assay_value = 0.327

[[record]]
entry_sequence = "RRIRPRPPRLPRPRPRPNTYPRP"
measured_target = "Escherichia coli TOP10"
recorded_metric = "shrunken log2 fold change"
assay_value = -0.67

[[record]]
entry_sequence = "RRIRKRPPRLPRPRPRPRRHPRP"
measured_target = "Escherichia coli TOP10"
recorded_metric = "shrunken log2 fold change"
assay_value = 0.523

[[record]]
entry_sequence = "RRIRTRPPRLPRPRPRPFGWPRP"
measured_target = "Escherichia coli TOP10"
recorded_metric = "shrunken log2 fold change"
assay_value = 0.189

[[record]]
entry_sequence = "RRIRRRPPRLPRPRPRPCIQPRP"
measured_target = "Escherichia coli TOP10"
recorded_metric = "shrunken log2 fold change"
assay_value = -0.271

[[record]]
entry_sequence = "RRIRDRPPRLPRPRPRPCAQPRP"
measured_target = "Escherichia coli TOP10"
recorded_metric = "shrunken log2 fold change"
assay_value = 1.19

[[record]]
entry_sequence = "RRIRKRPPRLPRPRPRPNKCPRP"
measured_target = "Escherichia coli TOP10"
recorded_metric = "shrunken log2 fold change"
assay_value = -0.106

[[record]]
entry_sequence = "RRIRYRPPRLPRPRPRPLDTPRP"
measured_target = "Escherichia coli TOP10"
recorded_metric = "shrunken log2 fold change"
assay_value = -0.429

[[record]]
entry_sequence = "RRIRWRPPRLPRPRPRPFYEPRP"
measured_target = "Escherichia coli TOP10"
recorded_metric = "shrunken log2 fold change"
assay_value = -0.579

[[record]]
entry_sequence = "RRIRQRPPRLPRPRPRPNSCPRP"
measured_target = "Escherichia coli TOP10"
recorded_metric = "shrunken log2 fold change"
assay_value = 0.0314

[[record]]
entry_sequence = "RRIRLRPPRLPRPRPRPIHAPRP"
measured_target = "Escherichia coli TOP10"
recorded_metric = "shrunken log2 fold change"
assay_value = 0.111

[[record]]
entry_sequence = "RRIRPRPPRLPRPRPRPTHTPRP"
measured_target = "Escherichia coli TOP10"
recorded_metric = "shrunken log2 fold change"
assay_value = 0.13

[[record]]
entry_sequence = "RRIRNRPPRLPRPRPRPLNRPRP"
measured_target = "Escherichia coli TOP10"
recorded_metric = "shrunken log2 fold change"
assay_value = -0.327

[[record]]
entry_sequence = "RRIRMRPPRLPRPRPRPCKPPRP"
measured_target = "Escherichia coli TOP10"
recorded_metric = "shrunken log2 fold change"
assay_value = -0.173

[[record]]
entry_sequence = "RRIRDRPPRLPRPRPRPITQPRP"
measured_target = "Escherichia coli TOP10"
recorded_metric = "shrunken log2 fold change"
assay_value = 0.000804

[[record]]
entry_sequence = "RRIRKRPPRLPRPRPRPHRNPRP"
measured_target = "Escherichia coli TOP10"
recorded_metric = "shrunken log2 fold change"
assay_value = -0.167

[[record]]
entry_sequence = "RRIRDRPPRLPRPRPRPALHPRP"
measured_target = "Escherichia coli TOP10"
recorded_metric = "shrunken log2 fold change"
assay_value = 0.438

[[record]]
entry_sequence = "RRIRRRPPRLPRPRPRPTWSPRP"
measured_target = "Escherichia coli TOP10"
recorded_metric = "shrunken log2 fold change"
assay_value = 0.519

[[record]]
entry_sequence = "RRIRRRPPRLPRPRPRPQMMPRP"
measured_target = "Escherichia coli TOP10"
recorded_metric = "shrunken log2 fold change"
assay_value = -0.232

[[record]]
entry_sequence = "RRIRIRPPRLPRPRPRPNCFPRP"
measured_target = "Escherichia coli TOP10"
recorded_metric = "shrunken log2 fold change"
assay_value = 0.00306

[[record]]
entry_sequence = "RRIRARPPRLPRPRPRPNKYPRP"
measured_target = "Escherichia coli TOP10"
recorded_metric = "shrunken log2 fold change"
assay_value = -0.449

[[record]]
entry_sequence = "RRIRQRPPRLPRPRPRPQNVPRP"
measured_target = "Escherichia coli TOP10"
recorded_metric = "shrunken log2 fold change"
assay_value = -0.0161

[[record]]
entry_sequence = "RRIRFRPPRLPRPRPRPYSKPRP"
measured_target = "Escherichia coli TOP10"
recorded_metric = "shrunken log2 fold change"
assay_value = -0.996

[[record]]
entry_sequence = "RRIRNRPPRLPRPRPRPCGPPRP"
measured_target = "Escherichia coli TOP10"
recorded_metric = "shrunken log2 fold change"
assay_value = -0.0549

[[record]]
entry_sequence = "RRIRERPPRLPRPRPRPHTGPRP"
measured_target = "Escherichia coli TOP10"
recorded_metric = "shrunken log2 fold change"
assay_value = -1.1

[[record]]
entry_sequence = "RRIRMRPPRLPRPRPRPGYMPRP"
measured_target = "Escherichia coli TOP10"
recorded_metric = "shrunken log2 fold change"
assay_value = 0.0502

[[record]]
entry_sequence = "RRIRKRPPRLPRPRPRPHAEPRP"
measured_target = "Escherichia coli TOP10"
recorded_metric = "shrunken log2 fold change"
assay_value = 0.126

[[record]]
entry_sequence = "RRIRYRPPRLPRPRPRPPVKPRP"
measured_target = "Escherichia coli TOP10"
recorded_metric = "shrunken log2 fold change"
assay_value = -0.102

[[record]]
entry_sequence = "RRIRRRPPRLPRPRPRPMSQPRP"
measured_target = "Escherichia coli TOP10"
recorded_metric = "shrunken log2 fold change"
assay_value = 0.247


* * *

Documented shrunken log2 fold change across a set of sequences
Tested on: Escherichia coli TOP10;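 also: peptides expressed intracellularly from a pBAD plasmid library in pooled LB shake-flask culture, induced with 0.3% L-arabinose, DNA abundance read by NGS, three biological replicates, DESeq2 with apeglm shrinkage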
PROTOCOL_TEXT: shrunken log2 fold change of peptide-encoding DNA abundance (4.5 h post-induction vs induction); higher = less antimicrobial activity (less host growth inhibition)
CONDITION_SUMMARY: time post-induction: 4.5 h; library: site-saturation at positions 5, 18, 19, 20
RECORDED_METRIC: shrunken log2 fold change

[[record]]
entry_sequence = "RRIRCRPPRLPRPRPRPFGAPRP"
measured_target = "Escherichia coli TOP10"
assay_value = 0.102

[[record]]
entry_sequence = "RRIRYRPPRLPRPRPRPVCDPRP"
measured_target = "Escherichia coli TOP10"
assay_value = -0.623

[[record]]
entry_sequence = "RRIRPRPPRLPRPRPRPLEYPRP"
measured_target = "Escherichia coli TOP10"
assay_value = -0.56

[[record]]
entry_sequence = "RRIRWRPPRLPRPRPRPQKQPRP"
measured_target = "Escherichia coli TOP10"
assay_value = 0.184

[[record]]
entry_sequence = "RRIRQRPPRLPRPRPRPILNPRP"
measured_target = "Escherichia coli TOP10"
assay_value = -0.098

[[record]]
entry_sequence = "RRIRMRPPRLPRPRPRPKCDPRP"
measured_target = "Escherichia coli TOP10"
assay_value = 0.318

[[record]]
entry_sequence = "RRIRPRPPRLPRPRPRPDCSPRP"
measured_target = "Escherichia coli TOP10"
assay_value = 0.152

[[record]]
entry_sequence = "RRIRCRPPRLPRPRPRPAKYPRP"
measured_target = "Escherichia coli TOP10"
assay_value = -0.299

[[record]]
entry_sequence = "RRIRSRPPRLPRPRPRPEDCPRP"
measured_target = "Escherichia coli TOP10"
assay_value = 0.0867

[[record]]
entry_sequence = "RRIRCRPPRLPRPRPRPYMDPRP"
measured_target = "Escherichia coli TOP10"
assay_value = 0.0215

[[record]]
entry_sequence = "RRIRRRPPRLPRPRPRPGDPPRP"
measured_target = "Escherichia coli TOP10"
assay_value = 0.593

[[record]]
entry_sequence = "RRIRCRPPRLPRPRPRPQDTPRP"
measured_target = "Escherichia coli TOP10"
assay_value = -0.313

[[record]]
entry_sequence = "RRIRSRPPRLPRPRPRPCFGPRP"
measured_target = "Escherichia coli TOP10"
assay_value = -0.217

[[record]]
entry_sequence = "RRIRSRPPRLPRPRPRPPFCPRP"
measured_target = "Escherichia coli TOP10"
assay_value = 0.135

[[record]]
entry_sequence = "RRIRTRPPRLPRPRPRPVVPPRP"
measured_target = "Escherichia coli TOP10"
assay_value = -0.314

